target: T1, recombinant biotinylated CD71 extracellular domain (Sino Biologics) with an N-terminal 6His tag (human, UniProt P02786 89-760, biotinylated (sites not given)); experiment: screening ELISA, ratio
T1 construct: extracellular domain; also called hCD71; huCD71
T1 sequence (P02786 other isoform, or with tags, fused parts or gaps): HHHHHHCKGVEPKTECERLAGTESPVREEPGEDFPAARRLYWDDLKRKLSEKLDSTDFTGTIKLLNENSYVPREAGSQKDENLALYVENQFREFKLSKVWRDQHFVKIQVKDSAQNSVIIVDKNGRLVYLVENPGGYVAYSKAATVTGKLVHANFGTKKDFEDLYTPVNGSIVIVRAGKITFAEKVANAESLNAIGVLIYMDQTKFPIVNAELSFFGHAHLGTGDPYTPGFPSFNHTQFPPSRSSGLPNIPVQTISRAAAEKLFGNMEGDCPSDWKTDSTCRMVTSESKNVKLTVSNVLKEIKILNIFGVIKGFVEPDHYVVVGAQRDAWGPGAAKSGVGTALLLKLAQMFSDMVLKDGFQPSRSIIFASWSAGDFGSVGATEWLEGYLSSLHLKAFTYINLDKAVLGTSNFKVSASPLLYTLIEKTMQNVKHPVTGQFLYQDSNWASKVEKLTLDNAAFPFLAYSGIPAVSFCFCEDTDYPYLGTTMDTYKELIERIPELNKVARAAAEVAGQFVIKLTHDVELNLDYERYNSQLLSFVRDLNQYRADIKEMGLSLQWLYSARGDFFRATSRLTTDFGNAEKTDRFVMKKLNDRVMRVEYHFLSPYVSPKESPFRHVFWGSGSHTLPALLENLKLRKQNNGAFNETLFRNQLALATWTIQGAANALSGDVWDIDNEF
Below, each entry is listed with its recorded huCD71/Fc.
Write no unit; give the number alone.

Ask: Which huCD71/Fc value belongs to SEQ ID NO 44 (designed binder, FN3 domain) MLPAPKNLVVSRVTEDSARLSWTAPDAAFDSFYIEYYESLPDGEAIVLTVPGSERSYDLTGLKPGTEYAVYIYGVKGGYYSRPLSAIFTT ?
Reply: 44.8
